# target: Phospholipid hydroperoxide glutathione peroxidase GPX4 (Homo sapiens)
# protocol: Primary qHTS Assay for Inhibitors of Recombinant Selenoprotein Glutathione Peroxidase 4 (GPX4) (AID 1845192); also: nearly all actives have a fitted effect of over 65% in size
# condition notes: recombinant GPX4, GR-coupled NADPH fluorescence, 15 min; series mostly up to 50 µM
Inconclusive results are not listed. Activity calls are given as the source filed them. Calls follow the shape of the dose curve; as a rule, active = well fitted inhibition curve with a large enough effect; inconclusive = small, poorly fitted or top-dose-only effect; inactive = flat fitted curve, though single readings scatter.
// allowed return values: active, inactive

# example entries with known answers
CCn1ccc(NS(=O)(=O)c2ccc(N)cc2)nc1=O = inactive
CCOC(=O)NNc1ccc(N(CC)CC(C)O)nn1 (configuration not stated) = inactive

Query string: Kindly provide the recorded test outcome for the following compound: "O=C(O)CCC(=O)OC[C@@H](NC(=O)C(Cl)Cl)[C@H](O)c1ccc([N+](=O)[O-])cc1"
Result string: inactive

Query string: Test call, this compound: "N#Cc1cc(NC(=O)C(=O)O)c(Cl)c(NC(=O)C(=O)O)c1"
Result string: inactive

Query string: Call for entry "C[C@@H]1C[C@H]2[C@@H]3CCC4=CC(=O)C=C[C@]4(C)[C@@]3(F)[C@@H](O)C[C@]2(C)[C@@]1(O)C(=O)COC(=O)c1ccncc1" :
Result string: inactive

Query string: Outcome logged for "OC1(c2ccc(Cl)c(C(F)(F)F)c2)CCN(CCCC(c2ccc(F)cc2)c2ccc(F)cc2)CC1" in this assay:
Result string: inactive

Query string: // outcome(item) with item = "COc1cccc2c1[C@@H]1CN(CCCCn3c(=O)[nH]c4c(sc5ncc(-c6ccccc6)nc54)c3=O)C[C@@H]1CO2"
Result string: inactive

Query string: I would be grateful if you could indicate the recorded call for "O=C(O)/C=C(\CC(=O)O)C(=O)O" .
Result string: inactive

Query string: // outcome(item) with item = O=C(OCC(O)CO)c1ccccc1Nc1ccnc2c(C(F)(F)F)cccc12 (configuration not stated)
Result string: inactive

Query string: # outcome recorded in this test, key = "[O-][n+]1cccc(/C(Cl)=N/OC[C@@H](O)CN2CCCCC2)c1"
Result string: inactive

Query string: How did this test come out for "O=C(Nc1ccc(Cl)cc1)Nc1ccc(Cl)c(Cl)c1" ?
Result string: inactive

Query string: Please share the test call associated with "CNC(=O)c1cnn(-c2nc(N)c3ncn([C@@H]4O[C@H](CO)[C@@H](O)[C@H]4O)c3n2)c1" .
Result string: inactive

Query string: # fetch the recorded call for Cc1ccc(C(=O)Oc2ccc(C(O)CNC(C)(C)C)cc2OC(=O)c2ccc(C)cc2)cc1 (configuration not stated) here
Result string: inactive
